- studyTarget: Histone deacetylase 1 (Homo sapiens, UniProt Q13547)
- Sequence (Q13547 whole entry): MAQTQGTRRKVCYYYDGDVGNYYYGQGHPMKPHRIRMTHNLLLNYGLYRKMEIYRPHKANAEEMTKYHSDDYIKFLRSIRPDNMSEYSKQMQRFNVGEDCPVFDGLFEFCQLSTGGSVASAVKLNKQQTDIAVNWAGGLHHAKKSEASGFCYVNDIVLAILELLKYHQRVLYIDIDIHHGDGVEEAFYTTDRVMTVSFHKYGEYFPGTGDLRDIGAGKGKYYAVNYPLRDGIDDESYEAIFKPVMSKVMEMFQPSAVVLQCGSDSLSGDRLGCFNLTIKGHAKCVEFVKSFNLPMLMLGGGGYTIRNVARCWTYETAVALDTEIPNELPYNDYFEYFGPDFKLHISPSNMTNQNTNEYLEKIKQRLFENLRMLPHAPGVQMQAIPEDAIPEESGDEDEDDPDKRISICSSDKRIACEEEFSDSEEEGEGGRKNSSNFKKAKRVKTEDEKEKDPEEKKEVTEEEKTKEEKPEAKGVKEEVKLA
- assay: Inhibition of recombinant human HDAC1 using Ac-peptide as substrate preincubated for 15 mins followed by substrate addition and measured after 60 mins
Listed next: entries and their corresponding pIC50.
Field pIC50 (float): negative decimal logarithm of the concentration in molar.

1. Cc1ccc2c(CN[C@H]3CC[C@@H](Nc4ncc(C(=O)NO)cn4)CC3)cn(C)c2c1.Cl
8.31

With those in mind, consider the next compound.
Give Histone deacetylase 1 (Homo sapiens, UniProt Q13547) pIC50 for the following compound: "COc1ccc2c(CN[C@H]3CC[C@@H](Nc4ncc(C(=O)NO)cn4)CC3)cn(C)c2c1.Cl" 8.04

* * *

Listed next: entries and their corresponding IC50 at 72 h.
- assay: Cytotoxicity against HEK293T cells assessed as inhibition of cell growth incubated for 72 hrs by CCK8 assay
- Format: toxicity, cell-based, HEK-293T
- conditionNotes: human

1) Cn1cc(CN[C@H]2CC[C@@H](Nc3ncc(C(=O)NO)cn3)CC2)c2ncccc21
1250 nM
2) O=C(NO)c1cnc(N[C@H]2CC[C@@H](NCc3c4ccccc4cc4ccccc34)CC2)nc1
1030 nM
3) O=C(NO)c1cnc(N[C@H]2CC[C@@H](NCc3cc4ccccc4s3)CC2)nc1
2380 nM
4) O=C(NO)c1cnc(N[C@H]2CC[C@@H](NCC3CCCCC3)CC2)nc1
3630 nM
5) O=C(NO)c1cnc(N[C@H]2CC[C@@H](NCc3ccnc4ccccc34)CC2)nc1
> 10000 nM

Input "Cc1ccc2c(CN[C@H]3CC[C@@H](Nc4ncc(C(=O)NO)cn4)CC3)cn(C)c2c1.Cl" , output reported IC50 at 72 h. 7750 nM

Input "Cn1cc(CN[C@H]2CC[C@@H](Nc3ncc(C(=O)NO)cn3)CC2)c2ccc(Cl)cc21" , output reported IC50 at 72 h. 3650 nM

Input "O=C(NO)c1cnc(N[C@H]2CC[C@@H](NCc3ccc4ccccc4c3)CC2)nc1" , output reported IC50 at 72 h. 1790 nM

Input "O=C(NO)c1cnc(N[C@H]2CC[C@@H](NCc3cc4ccccc4c4ccccc34)CC2)nc1" , output reported IC50 at 72 h. 2010 nM

* * *

- assay: Selectivity index, ratio of IC50 for human HepG2 cells to IC50 for erythrocytic stage of Plasmodium falciparum 3D7
- Assay type: toxicity, cell-based
- conditionNotes: read-out: Ratio IC50
propertyMeasured: selectivity ratio
Just the number, please, no unit attached.

Example entries and their recorded answers appear below.
1) O=C(NO)c1cnc(N[C@H]2CC[C@@H](NCc3csc4ccccc34)CC2)nc1
54
2) Cc1ccc2c(CN[C@H]3CC[C@@H](Nc4ncc(C(=O)NO)cn4)CC3)cn(C)c2c1.Cl
469
3) O=C(NO)c1cnc(N[C@H]2CC[C@@H](NCc3cccc4ccncc34)CC2)nc1
163

Input "O=C(NO)c1cnc(N[C@H]2CC[C@@H](NCc3c4ccccc4cc4ccccc34)CC2)nc1" , output reported selectivity ratio. 95

Input "O=C(NO)c1cnc(N[C@H]2CC[C@@H](NCc3ccc4ccc5cccc6ccc3c4c56)CC2)nc1" , output reported selectivity ratio. 70

Input "O=C(NO)c1cnc(N[C@H]2CC[C@@H](NCc3coc4ccccc34)CC2)nc1" , output reported selectivity ratio. 51

Input "Cn1cc(CN[C@H]2CC[C@@H](Nc3ncc(C(=O)NO)cn3)CC2)c2ccc(Br)cc21" , output reported selectivity ratio. 100

Input "O=C(NO)c1cnc(N[C@H]2CC[C@@H](NCc3ccc(-c4ccccc4)cc3)CC2)nc1" , output reported selectivity ratio. 22

Input "O=C(NO)c1cnc(N[C@H]2CC[C@@H](NCc3cnc4ccccc4c3)CC2)nc1" , output reported selectivity ratio. 123

Input "O=C(NO)c1cnc(N[C@H]2CC[C@@H](NCC3CCCC3)CC2)nc1" , output reported selectivity ratio. 55

Input "O=C(NO)c1cnc(N[C@H]2CC[C@@H](NCc3ccc4ccccc4n3)CC2)nc1" , output reported selectivity ratio. 233

Input "O=C(NO)c1cnc(N[C@H]2CC[C@@H](NCc3ccc4ccccc4c3)CC2)nc1" , output reported selectivity ratio. 73

Input "O=C(NO)c1cnc(N[C@H]2CC[C@@H](NCc3ccnc4ccccc34)CC2)nc1" , output reported selectivity ratio. 125

* * *

- assay: Metabolic stability in mouse liver microsomes assessed as clearance measured upto 45 mins in presence of NADPH by LC-MS/MS analysis
- Assay type: ADME, Microsome
- conditionNotes: read-out: CLH
Listed next: entries and their corresponding CLint scaled.
I only need the number, in mL/min/kg, no unit after it.

1. Cc1ccc2c(CN[C@H]3CC[C@@H](Nc4ncc(C(=O)NO)cn4)CC3)cn(C)c2c1.Cl
140

With those in mind, consider the next compound.
Input "COc1ccc2c(CN[C@H]3CC[C@@H](Nc4ncc(C(=O)NO)cn4)CC3)cn(C)c2c1.Cl" , output reported CLint scaled. 114

* * *

Listed next: entries and their corresponding half-life.
- assay: Metabolic stability in mouse liver microsomes assessed as half-life measured upto 45 mins in presence of NADPH by LC-MS/MS analysis
- Format: ADME, Microsome
I only need the number, in min, no unit after it.

Example entries and their recorded answers appear below.
1. Cc1ccc2c(CN[C@H]3CC[C@@H](Nc4ncc(C(=O)NO)cn4)CC3)cn(C)c2c1.Cl
39
2. COc1ccc2c(CN[C@H]3CC[C@@H](Nc4ncc(C(=O)NO)cn4)CC3)cn(C)c2c1.Cl
48

With those in mind, consider the next molecule.
Input "Cn1cc(CNCC2CCN(c3ncc(C(=O)NO)cn3)CC2)c2ccccc21" , output reported half-life. 13.3

* * *

- studyTarget: Histone deacetylase 3 (Homo sapiens)
- Sequence (O15379 whole entry): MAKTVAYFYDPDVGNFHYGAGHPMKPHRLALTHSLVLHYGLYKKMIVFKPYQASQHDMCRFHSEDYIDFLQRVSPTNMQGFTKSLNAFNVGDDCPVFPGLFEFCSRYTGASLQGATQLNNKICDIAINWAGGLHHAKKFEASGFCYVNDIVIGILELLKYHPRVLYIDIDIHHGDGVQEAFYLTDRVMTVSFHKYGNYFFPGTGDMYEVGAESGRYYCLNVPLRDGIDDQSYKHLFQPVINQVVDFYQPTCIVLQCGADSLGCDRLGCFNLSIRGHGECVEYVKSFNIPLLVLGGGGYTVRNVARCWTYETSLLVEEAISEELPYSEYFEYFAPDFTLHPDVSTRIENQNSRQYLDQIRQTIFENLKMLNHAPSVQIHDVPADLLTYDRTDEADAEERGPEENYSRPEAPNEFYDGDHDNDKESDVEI
- assay: Inhibition of recombinant human HDAC3 using Ac-peptide as substrate preincubated for 15 mins followed by substrate addition and measured after 60 mins
propertyMeasured: pIC50
Field pIC50 (float): negative decimal logarithm of the concentration in molar.

1) COc1ccc2c(CN[C@H]3CC[C@@H](Nc4ncc(C(=O)NO)cn4)CC3)cn(C)c2c1.Cl
7.68

With those in mind, consider the next compound.
Give Histone deacetylase 3 (Homo sapiens) pIC50 for the following compound: "Cc1ccc2c(CN[C@H]3CC[C@@H](Nc4ncc(C(=O)NO)cn4)CC3)cn(C)c2c1.Cl" 7.64

* * *

- assay: Cytotoxicity against human HepG2 cells assessed as inhibition of cell growth incubated for 72 hrs by CCK8 assay
- Format: toxicity, cell-based
Listed next: entries and their corresponding IC50 at 72 h.
I only need the number, in µM, no unit after it.

1) O=C(NO)c1cnc(N[C@H]2CC[C@@H](NCc3cccc4ccncc34)CC2)nc1
7.08

With those in mind, consider the next compound.
Input "O=C(NO)c1cnc(N[C@H]2CC[C@@H](NCc3cnc4ccccc4c3)CC2)nc1" , output reported IC50 at 72 h. 3.33

* * *

- assay: AUC (0 to t) in female Balb/c mouse at 5 mg/kg, ip measured after 24 hrs by LC-MS/MS analysis
- Assay type: ADME, organism-based
- conditionNotes: in vivo
propertyMeasured: AUC(0-t) at 24 h (ng·h/mL)
I only need the number, in ng·h/mL, no unit after it.

Input "Cc1ccc2c(CN[C@H]3CC[C@@H](Nc4ncc(C(=O)NO)cn4)CC3)cn(C)c2c1.Cl" , output reported AUC(0-t) at 24 h. 833

* * *

Listed next: entries and their corresponding IC50.
- Tested on: Plasmodium falciparum
- assay: microbe, parasite or virus in culture
- conditionNotes: 72 h
- Description: Antimalarial activity against chloroquine resistant Plasmodium falciparum clinical isolate GB4 assessed as inhibition of growth incubated for 72 hrs by SYBR green I based assay
I only need the number, in nM, no unit after it.

1. Cc1ccc2c(CN[C@H]3CC[C@@H](Nc4ncc(C(=O)NO)cn4)CC3)cn(C)c2c1.Cl
29.5
2. COc1ccc2c(CN[C@H]3CC[C@@H](Nc4ncc(C(=O)NO)cn4)CC3)cn(C)c2c1.Cl
27.2
3. Cn1cc(CNCC2CCN(c3ncc(C(=O)NO)cn3)CC2)c2ccccc21
1.7

With those in mind, consider the next molecule.
Give Plasmodium falciparum IC50 for the following molecule: "C[C@H]1[C@@H](O)O[C@@H]2O[C@@]3(C)CC[C@H]4[C@H](C)CC[C@@H]1[C@@]24OO3" 3.2

* * *

- Test system: Plasmodium falciparum
- assay: microbe, parasite or virus in culture
- conditionNotes: Dd2, 72 h
- Description: Antimalarial activity against erythrocytic stage of chloroquine-resistant Plasmodium falciparum Dd2 assessed as inhibition of growth incubated for 72 hrs by SYBR green I based assay
propertyMeasured: pIC50
Field pIC50 (float): negative decimal logarithm of the concentration in molar.

Example entries and their recorded answers appear below.
1. O=C(NO)c1cnc(N[C@H]2CC[C@@H](NCc3cccc4cccnc34)CC2)nc1
7.27
2. O=C(NO)c1cnc(N[C@H]2CC[C@@H](NCc3c4ccccc4cc4ccccc34)CC2)nc1
8.12
3. COc1ccc2c(CN[C@H]3CC[C@@H](Nc4ncc(C(=O)NO)cn4)CC3)cn(C)c2c1.Cl
7.89
4. Cn1cc(CN[C@H]2CC[C@@H](Nc3ncc(C(=O)NO)cn3)CC2)c2cnccc21
7.29
5. Cn1cc(CN[C@H]2CC[C@@H](Nc3ncc(C(=O)NO)cn3)CC2)c2ccncc21
7.31
6. O=C(NO)c1cnc(N[C@H]2CC[C@@H](NCc3cnc4ccccc4c3)CC2)nc1
7.42
7. O=C(NO)c1cnc(N[C@H]2CC[C@@H](NCc3cc4ccccc4c4ccccc34)CC2)nc1
7.91
8. Cn1c(CN[C@H]2CC[C@@H](Nc3ncc(C(=O)NO)cn3)CC2)nc2ccccc21
7.58
9. O=C(NO)c1cnc(N[C@H]2CC[C@@H](NCc3ccc4ccccc4n3)CC2)nc1
7.84
10. O=C(NO)c1cnc(N[C@H]2CC[C@@H](NCc3ccc4cc(F)ccc4n3)CC2)nc1
7.80

Input "O=C(NO)c1cnc(N[C@H]2CC[C@@H](NCc3ccsc3)CC2)nc1" , output reported pIC50. 7.15

Input "C[C@H]1[C@@H](O)O[C@@H]2O[C@@]3(C)CC[C@H]4[C@H](C)CC[C@@H]1[C@@]24OO3" , output reported pIC50. 8.57

Input "O=C(NO)c1cnc(N[C@H]2CC[C@@H](NCc3ccc4ncccc4c3)CC2)nc1" , output reported pIC50. 7.33
